Ref: paper PMC8388771

Target or system Cryptococcus neoformans var. grubii ATCC 208821; recorded quantity MIC.
recorded-metric: MIC

>>> reported_measurement("CC(C)CCc1cnnn1-c1c(OCC(=O)N[C@H](CCCNC(=N)N)Cn2cc(CC3CCCCC3)nn2)ccc2ccccc12.Cl [Compound 25]")
"4 to 8 µg/mL"
>>> reported_measurement("CC(C)CCc1cn(-c2c(OCC(=O)N[C@H](CCCNC(=N)N)Cn3cc(Cc4ccccc4)nn3)ccc3ccccc23)nn1.Cl [Compound 23]")
"16 µg/mL"
>>> reported_measurement("CC(C)CCc1cnnn1-c1c(OCC(=O)N[C@H](CCCCN)C(=O)N[C@H](CCCNC(=N)N)Cn2cc(CC3CCCCC3)nn2)ccc2ccccc12 [Compound 44]")
"4 to 8 µg/mL"
